Reported residual activity values are given for each entry in this list.
- targetSystem: HCK (human) (UniProt P08631)
- Sequence (P08631 whole entry, looked up): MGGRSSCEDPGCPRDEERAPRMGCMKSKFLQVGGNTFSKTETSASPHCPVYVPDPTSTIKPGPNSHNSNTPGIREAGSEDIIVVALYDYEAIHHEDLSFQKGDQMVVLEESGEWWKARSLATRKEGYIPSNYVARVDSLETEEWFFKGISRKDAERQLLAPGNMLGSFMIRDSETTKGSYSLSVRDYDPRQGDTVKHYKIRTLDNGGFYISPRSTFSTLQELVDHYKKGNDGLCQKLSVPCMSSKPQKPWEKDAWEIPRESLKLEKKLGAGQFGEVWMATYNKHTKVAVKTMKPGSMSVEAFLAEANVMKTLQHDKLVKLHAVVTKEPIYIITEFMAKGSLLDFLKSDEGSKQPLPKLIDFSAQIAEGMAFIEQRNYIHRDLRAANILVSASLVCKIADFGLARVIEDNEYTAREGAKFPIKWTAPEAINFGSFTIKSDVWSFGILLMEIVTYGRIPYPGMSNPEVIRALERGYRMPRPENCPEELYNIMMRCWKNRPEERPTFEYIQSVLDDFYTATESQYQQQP
- procedureSummary: radiometric filter-binding kinase assay, Kinase HotSpot
- details: compound 0.5 µM; ATP 10 µM

{"columns": ["querySmiles", "unitOfMeasurement", "residual activity"],
 "data": [
  ["CCN1/C(=C/C(C)=O)Sc2ccc(OC)cc21", "%", 97.5],
  ["CC(C)(C)c1nc2c3ccc(F)cc3c3c(=O)[nH]ccc3c2[nH]1", "%", 84.8],
  ["Cc1cc2ncc(-c3ccccc3)nc2cc1C", "%", 90.1],
  ["CC(C)[C@H](CO)Nc1nc(Nc2cccc(Cl)c2)c2ncn(C(C)C)c2n1", "%", 55.6]
]}

Source of measurements: the kinase profiling compilation of Christmann-Franck et al. (2016)
